assay: yeast display, Sf9 membrane polyspecificity reagent, FACS + sequencing; frameworks hold sequencing errors

{"sequence record": "QVQLVESGGGLVQAGGSLRLSCAASGFIFGVNAMGWYRQAPGKERDLVAAITRNGGSTYYADSVKGRFTISRDNAKNTVYLQMNSLKPEDTAVYYCAKYVRRAPSTFDVDYWGQGTQVTVSS", "polyreactivity (PSR sort gate)": "high polyreactivity"}
{"sequence record": "QVQLVESGGGLVQAGGSLRLSCAASGSIFYYYAMGWYRQAPGKERELVASISTDGSTYADSVKGRFTISRDNAKNTVYLQMNSLKPEDTAVYYCNADTRGEYTYVSWYDYWGQGTQVTVSS", "polyreactivity (PSR sort gate)": "low polyreactivity"}
{"sequence record": "QVQLVESGGGLVQAGGSLRLSCAASGRTFQYYAMGWYRQAPGKERELVAAINQGGGRTYYADSVKGRFTISRDTAKNTVYLQMNSLKPEDTAVYYCAADGLSKFDYWGQGTQVTVSS", "polyreactivity (PSR sort gate)": "low polyreactivity"}
{"sequence record": "QVQLQESGGGLVQAGGSLRLSCAASGTISQEDWMGLYRQAPGKEREFVAAIGLGSNTNYADSLKGRFTISRDNAKNTVYLQMNSLKPEDTAVYYCAVSVWQYSDHVYRGQGTQVTVSS", "polyreactivity (PSR sort gate)": "low polyreactivity"}
{"sequence record": "QVQLVESGGGLVQAGGSLRLSCAPSGRTFRRYAMGWYRQAPGKEMEFVAAISRRTASTYYADSVKGRFTISRDNAKNTDYLQMNSLKPEDTAVYYCATKSGYSVGNYRYGYWVQGTQVTVSS", "polyreactivity (PSR sort gate)": "low polyreactivity"}
{"sequence record": "QVQLVESAGGLVQAGGSLRLSCAASGNTFDPNAMGWYRQAPGKEREFVAAISTIGSSTYYADSVKGRFTISRDNAKYTVYLQMNSLNPEVTAVYYCAKGIYVVYGIDDYWGQGTQVTLSS", "polyreactivity (PSR sort gate)": "low polyreactivity"}
{"sequence record": "QVQLVESGGGLVQAGGSLRLSCAASGRIFGYNAMGWYRQAPGKERELVASITSAASTYYADSVKGRFTISRDNAKNTVYLQMNSLKPEDTAVYYCAASAYSALFYWYDYWGQGTQVTVSW", "polyreactivity (PSR sort gate)": "high polyreactivity"}
{"sequence record": "EVQLVESGGGLVQPGGSLRLSCAASGYIYSRYRMGWYRQAPGKGREFVAAISGGSSTNYADSVKGRFTISRDNSKNTVYLQMNSLRAEDTAVYYCAAYKIDIDPRVYWGHGTQVTVSS", "polyreactivity (PSR sort gate)": "low polyreactivity"}
{"sequence record": "QVQLVESGGGLVQAGGSLRLSCAASGSTFTAYAMGWYRQAPGKERQLVAAISKRSGVTYYADSVKGRFTISRDNAKNTVYLQINSLKPEDTAVYYCGQGTQVTVSS", "polyreactivity (PSR sort gate)": "low polyreactivity"}
{"sequence record": "QVQLVESGGGLVQAGGSLRLSCAASGSTFDYYDMGWYRQAPGKERELVATITSGGSTNYADSVKGRFTISRDNAKNTVYLQMNSLKPEDTAVYYCAADIGGDGEGYDYWGQGTQVTVSS", "polyreactivity (PSR sort gate)": "low polyreactivity"}
{"sequence record": "QVQLVESGGGLVQAGGSLRIRCAASGRIFDTYAMGWYRQAPGKEREFVATISWDSASTYYADSVKGRFTISRDNAKNTVYLQMNSLKPEDTAVDYCAAGGSSSWAFNYWGQGTQLTVSS", "polyreactivity (PSR sort gate)": "low polyreactivity"}
